Experiment: In vitro metal competition study
Format: physicochemical
Settings: Ga3+, PBS pH 7.4, 37 C, 4 d
Entries and their % Intact of 89Zr-complexes values follow.
# number only, unit % dropped from output

Previously resolved entries follow.
O=C1CN2CCN3CCN4CCN(CC2)CC(=O)[O][89Zr]([O]1)([O]C(=O)C3)[O]C(=O)C4 [89Zr-DOTA] : 100
NC(=O)CN1CCN(CC(N)=O)CCN(CC(N)=O)CCN(CC(N)=O)CC1.[89Zr+4] [89Zr-DOTAM] : 86.6
CC(=O)N1CCCCCNC(=O)CCC(=O)N2CCCCCNC(=O)CCC(=O)N(CCCCCN)[O][89Zr+]([O]1)[O]2 [89Zr-DFO, reference compound] : 81.1

I have this molecule here, O=P1(O)CN2CCN3CCN4CCN(CC2)CP(=O)(O)[O][89Zr]([O]1)([O]P(=O)(O)C3)[O]P(=O)(O)C4 [89Zr-DOTP] , and I need its recorded % Intact of 89Zr-complexes. 93.6

* * *

Assay: In vitro EDTA challenge study
Format: physicochemical
Details: EDTA 1000-fold, pH 7.0, 37 C, 1 d
readout: % Intact of 89Zr-complexes

These solved cases illustrate the format of a correct answer.
O=C1CN2CCN3CCN4CCN(CC2)CC(=O)[O][89Zr]([O]1)([O]C(=O)C3)[O]C(=O)C4 [89Zr-DOTA] : 100%
NC(=O)CN1CCN(CC(N)=O)CCN(CC(N)=O)CCN(CC(N)=O)CC1.[89Zr+4] [89Zr-DOTAM] : 88.6 ± 0.4%
O=P1(O)CN2CCN3CCN4CCN(CC2)CP(=O)(O)[O][89Zr]([O]1)([O]P(=O)(O)C3)[O]P(=O)(O)C4 [89Zr-DOTP] : 97.9 ± 0.1%

Value lookup for % Intact of 89Zr-complexes; key = CC(=O)N1CCCCCNC(=O)CCC(=O)N2CCCCCNC(=O)CCC(=O)N(CCCCCN)[O][89Zr+]([O]1)[O]2 [89Zr-DFO, reference compound] 28.1 ± 0.7%

* * *

Each entry below carries its recorded % Intact of 89Zr-complexes.
Assay: In vitro metal competition study
Type: physicochemical
Conditions: Ga3+, PBS pH 7.4, 37 C, 7 d
Quick note: give the figure in %, leave out the unit.

Would you please look over these solved cases?
O=C1CN2CCN3CCN4CCN(CC2)CC(=O)[O][89Zr]([O]1)([O]C(=O)C3)[O]C(=O)C4 [89Zr-DOTA] : 100
NC(=O)CN1CCN(CC(N)=O)CCN(CC(N)=O)CCN(CC(N)=O)CC1.[89Zr+4] [89Zr-DOTAM] : 80.3
CC(=O)N1CCCCCNC(=O)CCC(=O)N2CCCCCNC(=O)CCC(=O)N(CCCCCN)[O][89Zr+]([O]1)[O]2 [89Zr-DFO, reference compound] : 72.6

Okay, next one:
Please give the measured % Intact of 89Zr-complexes for this compound: O=P1(O)CN2CCN3CCN4CCN(CC2)CP(=O)(O)[O][89Zr]([O]1)([O]P(=O)(O)C3)[O]P(=O)(O)C4 [89Zr-DOTP] 91.1

* * *

Experiment: In vitro metal competition study
Format: physicochemical
Conditions: Mg2+, PBS pH 7.4, 37 C, 7 d
Quick reference: % Intact of 89Zr-complexes of the listed items.
Give the quantity in %, number only.

Known % Intact of 89Zr-complexes results, listed for orientation:
CC(=O)N1CCCCCNC(=O)CCC(=O)N2CCCCCNC(=O)CCC(=O)N(CCCCCN)[O][89Zr+]([O]1)[O]2 [89Zr-DFO, reference compound] : 96.8
O=C1CN2CCN3CCN4CCN(CC2)CC(=O)[O][89Zr]([O]1)([O]C(=O)C3)[O]C(=O)C4 [89Zr-DOTA] : 100

What does the record list as % Intact of 89Zr-complexes for O=P1(O)CN2CCN3CCN4CCN(CC2)CP(=O)(O)[O][89Zr]([O]1)([O]P(=O)(O)C3)[O]P(=O)(O)C4 [89Zr-DOTP] ? 96.3

Next entry: NC(=O)CN1CCN(CC(N)=O)CCN(CC(N)=O)CCN(CC(N)=O)CC1.[89Zr+4] [89Zr-DOTAM] 93.1
